IC50: recorded values
# EXPERIMENTAL_SYSTEM: EED (1-441)-His protein (Homo sapiens, UniProt O75530)
# Construct: 30 nM EED (1-441)-His protein
# Sequence (O75530 whole entry): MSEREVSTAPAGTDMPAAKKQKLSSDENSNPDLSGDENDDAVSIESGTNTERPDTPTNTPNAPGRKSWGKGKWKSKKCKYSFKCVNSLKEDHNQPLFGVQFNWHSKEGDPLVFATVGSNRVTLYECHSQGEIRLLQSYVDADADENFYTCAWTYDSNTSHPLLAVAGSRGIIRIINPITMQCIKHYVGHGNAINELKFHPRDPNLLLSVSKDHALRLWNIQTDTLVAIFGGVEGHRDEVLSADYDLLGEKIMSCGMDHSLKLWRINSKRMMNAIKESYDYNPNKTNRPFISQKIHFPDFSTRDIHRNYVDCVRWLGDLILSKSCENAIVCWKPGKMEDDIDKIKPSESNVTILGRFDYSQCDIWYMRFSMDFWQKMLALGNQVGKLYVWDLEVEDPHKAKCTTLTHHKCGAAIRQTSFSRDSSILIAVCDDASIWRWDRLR
# ASSAY_METHOD_TEXT: EED-H3K27Me3 peptide competition binding assay by AlphaScreen
# SETUP_CONDITIONS: EED-H3K27Me3 peptide competition, AlphaScreen; read-out: (a) IC50 EED Alphascreen binding Qualified
Write it as a number; the unit nM goes unstated.

- CCn1nccc1-c1ccc(NCc2c(F)cccc2OC)n2cnnc12: 14
- COc1cccc(F)c1CNc1ccc(-c2ccnc(C(F)(F)F)c2)c2nncn12: 14.8
- COc1cccc(F)c1CNc1ccc(-c2cnn(CCN3CCOCC3)c2)c2nncn12: 43.3
- CCc1ccncc1-c1ccc(NCc2c(F)cc(F)cc2OC)n2cnnc12: 205
- COc1cccc(F)c1CNc1ccc(-c2cnccc2F)c2nncn12: 11.2
- COc1cccc(F)c1CNc1ccc(-c2ccc(NC(C)=O)nc2)c2nncn12: 25.3
- COc1cccc(F)c1CNc1ccc(-c2ccc(S(C)(=O)=O)cc2F)c2nncn12: 15.8
- COc1cccc(F)c1CNc1ccc(-c2cccnc2CO)c2nncn12: 27.6

API: the following record is the query input.
# lookup: COc1cccc(F)c1CNc1ccc(-c2ccc(CC#N)nc2C)c2nncn12 on EED (1-441)-His protein (Homo sapiens, UniProt O75530), IC50 = 6

Ref: patent US10689378B2
